Reference source for all entries: the supplement of paper PMC10065799

- Tgt: SHP2-C SH2
- Protocol Text: SH2 binding enrichment of the phosphorylated peptide, bacterial display (enrichment ratio); higher = better substrate or ligand; peptides without Tyr show the background
Observation Type: SH2 binding enrichment

HPWPRYTTRAP [FNDC1_Y1281_Q1280R] | 0.643
FDRREYSRFEK [ITGB7_Y758_YF] | 0.633
QGIFGYHHHMQ [UFSP2_Y287_Y290H_YF] | 0.936
AVRYIYTIDGS [DCX_Y105_G100A] | 20.1
EHAGEYGAEAL [HBA1_Y25_A20E] | 0.769

a. CTTIHNNYMCN [TP53_Y234_Y234N]
b. RSSGSYGGGGQ [HNRNPA1_Y341_P340S]
Could you please tell me which of these two has the higher SH2 binding enrichment: a or b ? State your choice using its label. a

A. EWQQTYTFDSG [JUP_Y20_YF]
B. LVSCTYQLARR [FGFR2_Y608_G613R]
C. KKHFSYAWPFF [BRDT_Y291_YF]
D. FSTSPYLLEAA [BRIP1_Y921_YF]
Rank by SH2 binding enrichment (largest to smallest). Form entry: labels listed in requested order. C, D, A, B

a. SLNEGYARDFD [FBP1_Y216]
b. QRPGLYDRPGA [HNRNPH2_Y210_P209L]
c. NNHGNYIVLLG [ETFDH_Y172_R175L]
Parameters: sort_field (SH2 binding enrichment), sort_dir (desc). Write the labels out in the order the request specifies. c, a, b

====

- Tested on: c-Src
- Protocol Text: phosphorylation enrichment, bacterial display (enrichment ratio); higher = better substrate or ligand; peptides without Tyr show the background
phosphorylation enrichment listing for selected sequences.
// response body must contain only the number

QRTMKYTTATE [MCCC1_Y41_G46E] | 0.706
SSNLYYRWLTA [CNGA3_Y169] | 2.87
MGCVNYGAFIN [GLB1_Y485_R482C_YF] | 1.19
CLMILYRLKER [PTPRR_Y249] | 0.388
SNYRAYATEPH [TNNI3_Y29] | 0.362
SVTFTYSPALN [TP53_Y126_C124Y_YF] | 0.392
FPPTHYIRRVP [SLC4A11_Y820_YF] | 0.475
MHDSNYVSKGS [PDGFRA_Y849] | 0.482

Can you look up the measured phosphorylation enrichment of TSQSQYSSFRE [CCDC170_Y323_F324S] for me? 1.88

For the sequence shown here, HNLDFYKMTTN [FGFR3_Y648_K650M_YF] , give the reported phosphorylation enrichment. 0.364

Given the sequence HRGHLYLAIEF [TEK_Y899_Y897H_YF] , what is its reported phosphorylation enrichment? 2.63

Dear colleague, I am looking for the recorded phosphorylation enrichment of the following sequence: TYVVLYDAELT [ERCC4_Y581_R576T] 0.795

Please report the recorded phosphorylation enrichment for AAVDNYCRHNF [HLA-DRB1_Y107_T106N_YF] . 0.349

====

Overview of reported phosphorylation enrichment across a group of sequences:
- Tgt: MERTK (UniProt Q12866)
- Sequence (Q12866 whole entry, looked up): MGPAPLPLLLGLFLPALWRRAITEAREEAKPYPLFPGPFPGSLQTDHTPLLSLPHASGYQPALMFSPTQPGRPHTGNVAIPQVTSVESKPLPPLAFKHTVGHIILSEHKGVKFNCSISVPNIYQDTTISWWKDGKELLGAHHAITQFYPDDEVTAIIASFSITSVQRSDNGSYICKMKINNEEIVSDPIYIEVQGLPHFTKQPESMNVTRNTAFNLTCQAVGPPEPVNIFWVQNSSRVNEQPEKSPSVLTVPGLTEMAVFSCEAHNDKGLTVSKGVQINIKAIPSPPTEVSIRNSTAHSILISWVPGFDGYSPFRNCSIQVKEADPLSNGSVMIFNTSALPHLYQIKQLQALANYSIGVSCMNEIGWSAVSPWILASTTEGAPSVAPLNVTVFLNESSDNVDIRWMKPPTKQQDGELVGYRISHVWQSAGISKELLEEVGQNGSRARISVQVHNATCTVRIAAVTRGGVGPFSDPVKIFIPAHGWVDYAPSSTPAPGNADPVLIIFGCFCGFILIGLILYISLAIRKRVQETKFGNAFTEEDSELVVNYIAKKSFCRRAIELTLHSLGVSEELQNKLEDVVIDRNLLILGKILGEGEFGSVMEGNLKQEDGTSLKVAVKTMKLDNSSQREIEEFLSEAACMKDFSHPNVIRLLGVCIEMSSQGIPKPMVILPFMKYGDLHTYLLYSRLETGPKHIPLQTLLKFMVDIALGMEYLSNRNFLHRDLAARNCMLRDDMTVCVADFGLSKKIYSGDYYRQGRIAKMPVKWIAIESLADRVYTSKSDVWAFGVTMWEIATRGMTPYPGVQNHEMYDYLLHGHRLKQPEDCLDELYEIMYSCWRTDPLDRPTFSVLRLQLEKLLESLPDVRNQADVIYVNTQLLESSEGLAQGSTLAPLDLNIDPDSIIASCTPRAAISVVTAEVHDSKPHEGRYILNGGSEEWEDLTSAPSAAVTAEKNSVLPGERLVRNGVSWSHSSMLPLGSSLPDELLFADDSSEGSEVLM
- Protocol Text: phosphorylation enrichment, bacterial display (enrichment ratio); higher = better substrate or ligand; peptides without Tyr show the background
Lab note: jot down the number only; don't add units.

Kindly state the measured phosphorylation enrichment obtained for RSFPSYFTSHV [NEFL_Y442_YF] with MERTK (UniProt Q12866). 0.629

Observed phosphorylation enrichment on MERTK (UniProt Q12866) for RAEIVYKSPVV [MAPT_Y711_G706R] , please. 0.415

# returns recorded phosphorylation enrichment (system: MERTK (UniProt Q12866)) for DSFSSYCNAVA [SLC20A2_Y436_YF] 0.503

Look up phosphorylation enrichment with MERTK (UniProt Q12866) for this sequence: SVQIVYKPVDL [MAPT_Y627] 0.376

// fetch MERTK (UniProt Q12866) phosphorylation enrichment for DENWFYTRPAS [RPS19_Y54_A57P] 0.477

Report phosphorylation enrichment for KSRQIYDAFIM [GRK3_Y109_R104K_YF] tested on MERTK (UniProt Q12866). 11.7

# returns recorded phosphorylation enrichment (system: MERTK (UniProt Q12866)) for GHPYAYDWISI [BEST1_Y227_L224P] 8.66

// lookup phosphorylation enrichment | system=MERTK (UniProt Q12866) | key= VGTKRYRAPEV [ACVRL1_Y375_M376R] 0.339

Field: phosphorylation enrichment (MERTK (UniProt Q12866)). Entry: PQGVGYPPQQQ [EP300_Y2219] 0.619

Please state recorded phosphorylation enrichment (tested on MERTK (UniProt Q12866)) of EWQQTYTFDSG [JUP_Y20_YF] 0.668

Please provide the recorded phosphorylation enrichment for GGQDVYGDFGG [Probound] , tested on MERTK (UniProt Q12866). 0.562

API: value(readout=phosphorylation enrichment, system=MERTK (UniProt Q12866)) for record AGREEYSAMRD [KRAS_Y64_Q61R] 0.425
